Assay: solubility
Conditions: water
Property Measured: solubility (µg/mL)
Form entry: value (µg/mL) — number only.

For reference, reported solubility for O=C1NC(=O)[C@H]2[C@H]3C=C[C@@H]([C@@H]12)[C@@H]1[C@H]2C(=O)NC(=O)[C@H]2[C@H]31 [mitindomide] stands at 70

* * *

Assay: solubility
Settings: absolute ethanol, organic solvent or mixture
Property Measured: solubility

For reference, reported solubility for O=C1NC(=O)[C@H]2[C@H]3C=C[C@@H]([C@@H]12)[C@@H]1[C@H]2C(=O)NC(=O)[C@H]2[C@H]31 [mitindomide] stands at < 4 µg/mL
